Test system: vGLUT1- bzw. vGLUT2-Transporter
Test Description: Glutamate uptake in rat crude synaptic vesicles ([3H]-glutamate)
Type: biochemical, Ratte
Measurement Setup: test concentration not given
Think of 60% as a floor: if vGLUT (Ratte), Hemmung [%] stands on it or above, it is yes; beneath it, no.

{"columns": ["Compound", "Subject Of Test", "Category"],
 "data": [
  ["O=C(O)c1cc(NC(=O)c2cccc3ccccc23)c(C(=O)O)cc1NC(=O)c1cccc2ccccc12", "vGLUT1- bzw. vGLUT2-Transporter", "yes"],
  ["O=C(O)c1cc(-c2ccc(NC(=O)c3cccc4ccccc34)c(C(=O)O)c2)ccc1NC(=O)c1cccc2ccccc12", "vGLUT1- bzw. vGLUT2-Transporter", "no"],
  ["Cc1ccc(S(=O)(=O)Nc2ccc(Cc3ccc(NS(=O)(=O)c4ccc(C)cc4)c(C(=O)O)c3)cc2C(=O)O)cc1", "vGLUT1- bzw. vGLUT2-Transporter", "no"],
  ["O=C(c1ccc(C(=O)O)c(NC(=O)c2cccc3ccccc23)c1)c1ccc(C(=O)O)c(NC(=O)c2cccc3ccccc23)c1", "vGLUT1- bzw. vGLUT2-Transporter", "yes"],
  ["Nc1ccccc1C(=O)Nc1ccc(-c2ccc(NC(=O)c3ccccc3N)c(C(=O)O)c2)cc1C(=O)O [Beispiel 6]", "vGLUT1- bzw. vGLUT2-Transporter", "yes"],
  ["Cc1ccc(S(=O)(=O)Nc2ccc(-c3ccc(NS(=O)(=O)c4ccc(C)cc4)c(C(=O)O)c3)cc2C(=O)O)cc1 [Beispiel 8]", "vGLUT1- bzw. vGLUT2-Transporter", "yes"],
  ["Cc1ccc(S(=O)(=O)Nc2ccc(-c3ccc(NS(=O)(=O)c4ccc(C)cc4)c(C(=O)O)c3)cc2C(=O)O)cc1 [Beispiel 11]", "vGLUT1- bzw. vGLUT2-Transporter", "yes"],
  ["CC(=O)Nc1cc(C(=O)c2ccc(C(=O)O)c(NC(C)=O)c2)ccc1C(=O)O", "vGLUT1- bzw. vGLUT2-Transporter", "no"]
]}
